System: Caspase-8 (Homo sapiens) | Read-out: Ki | Origin: multiple publications

These solved cases illustrate the format of a correct answer.
COc1cccc(C(=O)N[C@H](C(=O)N2CCC[C@H]2C(=O)N[C@H](C=O)CC(=O)O)C(C)(C)C)c1F :: < 10 nM
Cc1cc(C(=O)N[C@@H](C)C(=O)N2CCC[C@H]2C(=O)N[C@H](C=O)CC(=O)O)cc(C)c1O :: > 1000 nM
CC(C)(C)[C@H](NC(=O)c1cccc(OCC2CC2)c1Cl)C(=O)N1CCC[C@H]1C(=O)N[C@H](C=O)CC(=O)O :: < 10 nM
COc1ccc(C(=O)N[C@H](C(=O)N2CCC[C@H]2C(=O)N[C@H](C=O)CC(=O)O)C(C)C)c(Cl)c1 :: 10 to 20 nM

[in] Requested read-out Ki, target or system Caspase-8 (Homo sapiens), entry Cc1cccc(C(=O)N[C@H](C(=O)N2CCC[C@H]2C(=O)N[C@H](C=O)CC(=O)O)C(C)(C)C)c1Cl
[out] < 10 nM

[in] Requested read-out Ki, target or system Caspase-8 (Homo sapiens), entry CC(C)[C@H](NC(=O)c1c(N)cccc1Cl)C(=O)N1CCC[C@H]1C(=O)N[C@H](C=O)CC(=O)O
[out] 21 to 30 nM

[in] Requested read-out Ki, target or system Caspase-8 (Homo sapiens), entry CC(=O)Nc1cccc(C(=O)N[C@H](C(=O)N2CCC[C@H]2C(=O)N[C@H](C=O)CC(=O)O)C(C)(C)C)c1C
[out] 10 to 20 nM

[in] Requested read-out Ki, target or system Caspase-8 (Homo sapiens), entry Cc1cccc(C)c1C(=O)N[C@H](C(=O)N1CCC[C@H]1C(=O)N[C@H](C=O)CC(=O)O)C(C)C
[out] < 10 nM

[in] Requested read-out Ki, target or system Caspase-8 (Homo sapiens), entry CC(C)[C@H](NC(=O)c1cccc(C(F)(F)F)c1Cl)C(=O)N1CCC[C@H]1C(=O)N[C@H](C=O)CC(=O)O
[out] 10 to 20 nM

[in] Requested read-out Ki, target or system Caspase-8 (Homo sapiens), entry CC(C)C(=O)Nc1ccc(C(=O)N[C@H](C(=O)N2CCC[C@H]2C(=O)N[C@H](C=O)CC(=O)O)C(C)(C)C)c(Cl)c1
[out] < 10 nM

[in] Requested read-out Ki, target or system Caspase-8 (Homo sapiens), entry CC(C)(C)[C@H](NC(=O)c1ccccc1Cl)C(=O)N1[C@@H]2CC[C@@H](C2)[C@H]1C(=O)NC(C=O)CC(=O)O (stereo in doubt)
[out] < 10 nM

[in] Requested read-out Ki, target or system Caspase-8 (Homo sapiens), entry CC(=O)Nc1ccc(C(=O)N[C@H](C(=O)N2C3CC[C@@H](C3)[C@H]2C(=O)N[C@H](C=O)CC(=O)O)C(C)(C)C)c(Cl)c1 (stereo in doubt)
[out] < 10 nM

[in] Requested read-out Ki, target or system Caspase-8 (Homo sapiens), entry CC(C)(C)[C@H](NC(=O)c1ccc(O)cc1Cl)C(=O)N1CCC[C@H]1C(=O)N[C@H](C=O)CC(=O)O
[out] < 10 nM

[in] Requested read-out Ki, target or system Caspase-8 (Homo sapiens), entry CC(=O)Nc1ccc(C(=O)N[C@H](C(=O)N2CCC[C@H]2C(=O)N[C@H](C=O)CC(=O)O)C(C)(C)C)c(Cl)c1
[out] < 10 nM

[in] Requested read-out Ki, target or system Caspase-8 (Homo sapiens), entry O=C[C@H](CC(=O)O)NC(=O)[C@@H](CC(=O)N1CCOCC1)CC1CCCC1
[out] > 10000 nM

[in] Requested read-out Ki, target or system Caspase-8 (Homo sapiens), entry C[C@H](NC(=O)c1nccc2ccccc12)C(=O)N1CCC[C@H]1C(=O)N[C@H](C=O)CC(=O)O
[out] 10 to 1000 nM

[in] Requested read-out Ki, target or system Caspase-8 (Homo sapiens), entry COc1cccc(C(=O)N[C@H](C(=O)N2C3CC[C@@H](C3)[C@H]2C(=O)N[C@H](C=O)CC(=O)O)C(C)(C)C)c1F (stereo in doubt)
[out] < 10 nM

[in] Requested read-out Ki, target or system Caspase-8 (Homo sapiens), entry CC(C)(C)[C@H](NC(=O)c1cccc(OC(F)(F)F)c1Cl)C(=O)N1CCC[C@H]1C(=O)N[C@H](C=O)CC(=O)O
[out] < 10 nM

[in] Requested read-out Ki, target or system Caspase-8 (Homo sapiens), entry CCc1cccc(C(=O)N[C@H](C(=O)N2CCC[C@H]2C(=O)N[C@H](C=O)CC(=O)O)C(C)(C)C)c1Cl
[out] < 10 nM

[in] Requested read-out Ki, target or system Caspase-8 (Homo sapiens), entry Cc1ncccc1C(=O)N[C@H](C(=O)N1CCC[C@H]1C(=O)N[C@H](C=O)CC(=O)O)C(C)C
[out] 21 to 30 nM

[in] Requested read-out Ki, target or system Caspase-8 (Homo sapiens), entry CC(=O)Nc1ccc(C(=O)N[C@H](C(=O)N2CCC[C@H]2C(=O)N[C@H](C=O)CC(=O)O)C2CCCCC2)c(Cl)c1
[out] 21 to 30 nM

[in] Requested read-out Ki, target or system Caspase-8 (Homo sapiens), entry COc1cccc(C(=O)N[C@H](C(=O)N2CCC[C@H]2C(=O)N[C@H](C=O)CC(=O)O)C(C)C)c1Cl
[out] < 10 nM

[in] Requested read-out Ki, target or system Caspase-8 (Homo sapiens), entry CC(C)[C@H](NC(=O)c1ccnc(Cl)c1Cl)C(=O)N1CCC[C@H]1C(=O)N[C@H](C=O)CC(=O)O
[out] 10 to 20 nM
